# System name: UniProtKB A0AA95FIJ1
# Sequence (A0AA95FIJ1 1-1111): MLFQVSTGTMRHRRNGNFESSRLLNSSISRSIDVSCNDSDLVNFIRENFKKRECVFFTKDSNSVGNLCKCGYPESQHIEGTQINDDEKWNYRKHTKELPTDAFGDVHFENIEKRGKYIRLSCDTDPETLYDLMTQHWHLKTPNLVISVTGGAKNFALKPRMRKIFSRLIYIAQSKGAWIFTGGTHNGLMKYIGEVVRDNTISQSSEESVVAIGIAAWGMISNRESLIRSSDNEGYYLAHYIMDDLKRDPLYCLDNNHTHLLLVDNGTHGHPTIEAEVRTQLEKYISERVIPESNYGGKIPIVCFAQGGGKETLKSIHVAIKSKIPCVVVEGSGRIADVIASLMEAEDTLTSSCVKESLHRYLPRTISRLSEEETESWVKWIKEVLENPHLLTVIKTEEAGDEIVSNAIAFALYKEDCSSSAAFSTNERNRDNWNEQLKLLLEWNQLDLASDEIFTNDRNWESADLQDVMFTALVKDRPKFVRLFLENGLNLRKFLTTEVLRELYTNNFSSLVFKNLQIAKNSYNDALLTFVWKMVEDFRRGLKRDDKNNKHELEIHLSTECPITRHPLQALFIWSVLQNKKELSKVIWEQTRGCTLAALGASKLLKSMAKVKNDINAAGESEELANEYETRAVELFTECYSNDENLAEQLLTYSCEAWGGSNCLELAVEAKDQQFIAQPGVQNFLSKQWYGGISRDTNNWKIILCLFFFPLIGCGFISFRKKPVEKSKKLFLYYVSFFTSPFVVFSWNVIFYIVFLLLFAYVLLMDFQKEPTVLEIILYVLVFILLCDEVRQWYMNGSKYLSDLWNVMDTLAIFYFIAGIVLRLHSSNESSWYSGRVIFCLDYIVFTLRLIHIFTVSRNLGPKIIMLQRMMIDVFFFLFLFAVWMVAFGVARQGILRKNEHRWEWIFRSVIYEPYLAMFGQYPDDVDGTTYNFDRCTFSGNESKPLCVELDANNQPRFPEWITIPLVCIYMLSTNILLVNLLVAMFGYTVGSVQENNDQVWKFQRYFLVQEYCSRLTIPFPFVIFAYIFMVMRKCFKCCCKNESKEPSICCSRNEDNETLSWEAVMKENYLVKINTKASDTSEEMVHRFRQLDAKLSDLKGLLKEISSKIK
Quantity measured: pEC50
Worth noting: pEC50 values are minus log10 of concentrations stated in mol/L.

Fill in: pEC50 of CCCCCCCP(=O)(C(C)C)C(C)C is ___
6.60

###

# System name: human TRPM8 (hTRPM8) (Homo sapiens, UniProt Q7Z2W7)
# Sequence (Q7Z2W7 whole entry): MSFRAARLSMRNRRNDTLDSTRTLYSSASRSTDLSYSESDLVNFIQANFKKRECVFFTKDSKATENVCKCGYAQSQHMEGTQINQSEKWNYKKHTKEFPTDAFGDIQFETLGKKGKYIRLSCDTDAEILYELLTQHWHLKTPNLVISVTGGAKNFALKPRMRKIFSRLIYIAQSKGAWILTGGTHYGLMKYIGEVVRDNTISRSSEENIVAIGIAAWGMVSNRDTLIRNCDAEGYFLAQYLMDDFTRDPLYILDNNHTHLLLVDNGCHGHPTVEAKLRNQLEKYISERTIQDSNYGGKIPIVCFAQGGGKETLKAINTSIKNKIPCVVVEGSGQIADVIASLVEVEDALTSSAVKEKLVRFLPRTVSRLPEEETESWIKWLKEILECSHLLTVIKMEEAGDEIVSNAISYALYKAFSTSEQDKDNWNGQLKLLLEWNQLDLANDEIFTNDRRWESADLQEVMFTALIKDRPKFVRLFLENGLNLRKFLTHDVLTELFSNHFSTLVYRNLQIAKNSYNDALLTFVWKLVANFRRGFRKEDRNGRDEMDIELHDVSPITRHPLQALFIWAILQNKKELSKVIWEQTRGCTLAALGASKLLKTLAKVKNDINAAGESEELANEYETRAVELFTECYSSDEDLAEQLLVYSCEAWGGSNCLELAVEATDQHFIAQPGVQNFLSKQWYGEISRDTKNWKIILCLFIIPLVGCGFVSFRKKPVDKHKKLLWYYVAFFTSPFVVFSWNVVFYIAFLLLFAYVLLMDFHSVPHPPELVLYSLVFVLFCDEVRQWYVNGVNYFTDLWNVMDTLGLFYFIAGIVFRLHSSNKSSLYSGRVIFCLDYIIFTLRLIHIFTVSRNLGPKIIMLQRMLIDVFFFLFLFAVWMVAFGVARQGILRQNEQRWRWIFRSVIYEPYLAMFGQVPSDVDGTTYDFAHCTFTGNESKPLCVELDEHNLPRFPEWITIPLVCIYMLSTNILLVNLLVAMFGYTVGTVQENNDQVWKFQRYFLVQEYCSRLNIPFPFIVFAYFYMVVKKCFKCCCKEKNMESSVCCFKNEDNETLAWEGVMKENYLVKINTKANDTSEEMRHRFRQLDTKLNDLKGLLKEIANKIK
# Format: cell-based
Quantity measured: pEC50
By convention, pEC50 is the negative base-10 log of a molar concentration.

Which pEC50 value belongs to CCCCCCCP(=O)(C(C)C)C(C)C ?
5.61
